targetOfAssay: JAK2 (Homo sapiens, UniProt O60674)
Construct: host or cells: baculovirus expression system
Sequence (O60674 whole entry): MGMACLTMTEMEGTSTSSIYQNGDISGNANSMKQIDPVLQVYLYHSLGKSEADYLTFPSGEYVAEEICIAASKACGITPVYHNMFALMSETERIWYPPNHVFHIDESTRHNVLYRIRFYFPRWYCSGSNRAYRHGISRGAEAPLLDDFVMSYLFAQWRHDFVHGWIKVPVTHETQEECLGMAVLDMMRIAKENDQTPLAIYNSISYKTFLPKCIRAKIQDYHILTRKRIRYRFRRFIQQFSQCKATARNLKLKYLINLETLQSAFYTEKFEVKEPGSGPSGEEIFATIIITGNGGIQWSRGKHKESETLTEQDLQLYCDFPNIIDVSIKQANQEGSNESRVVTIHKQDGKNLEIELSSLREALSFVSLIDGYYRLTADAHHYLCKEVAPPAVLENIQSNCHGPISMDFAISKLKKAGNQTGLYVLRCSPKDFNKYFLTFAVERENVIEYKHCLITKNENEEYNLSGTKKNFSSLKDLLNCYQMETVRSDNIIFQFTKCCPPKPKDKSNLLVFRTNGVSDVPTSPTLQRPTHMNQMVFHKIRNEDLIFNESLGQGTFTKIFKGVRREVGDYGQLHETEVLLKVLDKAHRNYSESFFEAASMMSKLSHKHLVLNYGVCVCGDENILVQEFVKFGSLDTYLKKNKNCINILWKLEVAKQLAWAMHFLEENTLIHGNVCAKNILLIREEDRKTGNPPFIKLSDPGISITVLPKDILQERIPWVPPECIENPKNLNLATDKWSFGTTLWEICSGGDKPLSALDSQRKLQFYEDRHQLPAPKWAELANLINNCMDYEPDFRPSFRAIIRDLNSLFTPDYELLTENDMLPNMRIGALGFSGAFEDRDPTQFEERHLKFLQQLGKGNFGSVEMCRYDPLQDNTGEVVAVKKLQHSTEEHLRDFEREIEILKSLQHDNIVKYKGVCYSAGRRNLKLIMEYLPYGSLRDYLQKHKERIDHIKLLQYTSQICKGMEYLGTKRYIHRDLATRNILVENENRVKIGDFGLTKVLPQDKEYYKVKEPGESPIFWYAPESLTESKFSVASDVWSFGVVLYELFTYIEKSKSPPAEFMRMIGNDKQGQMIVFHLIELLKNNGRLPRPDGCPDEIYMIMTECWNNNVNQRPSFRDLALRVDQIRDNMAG
assayExplanation: Recombinant Human JAK2 Kinase Assay (TRF)
Format: biochemical
protocolConditions: JAK2 kinase inhibition, 0.2 μM ATP; read-out: JAK2 Potency
measuredQuantity: IC50

Cn1ccc(-c2ccc3cnc(Nc4ccc(C5CCN(CC(N)=O)CC5)cc4)nn23)n1; < 100 nM

Can you give me IC50 for all of these, one by one?
1. CCN(CC)C1CCN(c2ccc(Nc3ncc4ccc(-c5cccc(NS(=O)(=O)C(C)(C)C)c5)n4n3)cc2)CC1
2. CC(C)(C)NS(=O)(=O)c1cccc(-c2ccc3cnc(Nc4ccc(C5CCNCC5O)cc4)nn23)c1 (centres unmarked)
3. COc1cccc(F)c1-c1ccc2cnc(Nc3ccc(C4CCN(CC(N)=O)CC4)cc3)nn12
4. CN1CCN(c2ccc(Nc3ncc4ccc(-c5cncc(CNCCS(C)(=O)=O)c5)n4n3)cc2)CC1
5. CS(=O)(=O)N1Cc2cccc(-c3ccc4cnc(Nc5ccc(C6CN(CC(N)=O)C6)cc5)nn34)c2C1
6. CN1CCOCc2cc(Nc3ncc4ccc(-c5cccc(NS(C)(=O)=O)c5)n4n3)ccc21

1: < 100 nM; 2: < 100 nM; 3: < 100 nM; 4: < 100 nM; 5: < 100 nM; 6: < 100 nM

Given item `CCN(CC)C1CCN(c2ccc(Nc3ncc4ccc(-c5ccc(OC)nc5)n4n3)cc2)CC1` , the value recorded as its IC50 is < 100 nM

###

targetOfAssay: JAK2 (Homo sapiens, UniProt O60674)
Construct: host or cells: baculovirus expression system
assayExplanation: Recombinant Human JAK2 Kinase Assay (TRF)
Format: biochemical
protocolConditions: JAK2 Kinase Inhibition; read-out: JAK2 Potency
pIC50: −log10 of the molar value.
For each of the molecules below, state its pIC50.

Some molecules with recorded pIC50:
CN1CCN(c2cccc(Nc3ncc4ccc(-c5cccc(COC(C)(C)C)c5)n4n3)c2)CC1; > 7.00
COc1cc(N2CCN(C[C@H](C)O)CC2)c(F)cc1Nc1ncc2ccc(-c3ccccc3OC)n2n1; 6.00 to 7.00
COc1ccc2c(c1)cc1cnc(Nc3ccc(N4CCOCC4)cc3OC)nn12; 5.00 to 6.00
COC(=O)c1cccc(-c2ccc3cnc(Nc4ccc(N5CCOCC5)cc4)nn23)c1; > 7.00
CS(=O)(=O)c1cccc(-c2ccc3cnc(Nc4ccc(N5CCOCC5)cc4)nn23)c1; > 7.00
COc1cc(N2CCN(C)CC2)ccc1Nc1ncc2cc3ccccc3n2n1; 5.00 to 6.00
COc1cc(N2CCCC(N3CC(C)OC(C)C3)C2)ccc1Nc1ncc2ccc(-c3ccccc3OC)n2n1 (centres unmarked); 6.00 to 7.00

Kindly review the next molecule as well.
Given item `CC(=O)Nc1cccc(Nc2ncc3ccc(-c4cccc(COC(C)(C)C)c4)n3n2)c1` , the value recorded as its pIC50 is > 7.00

###

targetOfAssay: ALK (Homo sapiens)
Construct: host or cells: baculovirus expression system
Sequence (Q9UM73 19-1620): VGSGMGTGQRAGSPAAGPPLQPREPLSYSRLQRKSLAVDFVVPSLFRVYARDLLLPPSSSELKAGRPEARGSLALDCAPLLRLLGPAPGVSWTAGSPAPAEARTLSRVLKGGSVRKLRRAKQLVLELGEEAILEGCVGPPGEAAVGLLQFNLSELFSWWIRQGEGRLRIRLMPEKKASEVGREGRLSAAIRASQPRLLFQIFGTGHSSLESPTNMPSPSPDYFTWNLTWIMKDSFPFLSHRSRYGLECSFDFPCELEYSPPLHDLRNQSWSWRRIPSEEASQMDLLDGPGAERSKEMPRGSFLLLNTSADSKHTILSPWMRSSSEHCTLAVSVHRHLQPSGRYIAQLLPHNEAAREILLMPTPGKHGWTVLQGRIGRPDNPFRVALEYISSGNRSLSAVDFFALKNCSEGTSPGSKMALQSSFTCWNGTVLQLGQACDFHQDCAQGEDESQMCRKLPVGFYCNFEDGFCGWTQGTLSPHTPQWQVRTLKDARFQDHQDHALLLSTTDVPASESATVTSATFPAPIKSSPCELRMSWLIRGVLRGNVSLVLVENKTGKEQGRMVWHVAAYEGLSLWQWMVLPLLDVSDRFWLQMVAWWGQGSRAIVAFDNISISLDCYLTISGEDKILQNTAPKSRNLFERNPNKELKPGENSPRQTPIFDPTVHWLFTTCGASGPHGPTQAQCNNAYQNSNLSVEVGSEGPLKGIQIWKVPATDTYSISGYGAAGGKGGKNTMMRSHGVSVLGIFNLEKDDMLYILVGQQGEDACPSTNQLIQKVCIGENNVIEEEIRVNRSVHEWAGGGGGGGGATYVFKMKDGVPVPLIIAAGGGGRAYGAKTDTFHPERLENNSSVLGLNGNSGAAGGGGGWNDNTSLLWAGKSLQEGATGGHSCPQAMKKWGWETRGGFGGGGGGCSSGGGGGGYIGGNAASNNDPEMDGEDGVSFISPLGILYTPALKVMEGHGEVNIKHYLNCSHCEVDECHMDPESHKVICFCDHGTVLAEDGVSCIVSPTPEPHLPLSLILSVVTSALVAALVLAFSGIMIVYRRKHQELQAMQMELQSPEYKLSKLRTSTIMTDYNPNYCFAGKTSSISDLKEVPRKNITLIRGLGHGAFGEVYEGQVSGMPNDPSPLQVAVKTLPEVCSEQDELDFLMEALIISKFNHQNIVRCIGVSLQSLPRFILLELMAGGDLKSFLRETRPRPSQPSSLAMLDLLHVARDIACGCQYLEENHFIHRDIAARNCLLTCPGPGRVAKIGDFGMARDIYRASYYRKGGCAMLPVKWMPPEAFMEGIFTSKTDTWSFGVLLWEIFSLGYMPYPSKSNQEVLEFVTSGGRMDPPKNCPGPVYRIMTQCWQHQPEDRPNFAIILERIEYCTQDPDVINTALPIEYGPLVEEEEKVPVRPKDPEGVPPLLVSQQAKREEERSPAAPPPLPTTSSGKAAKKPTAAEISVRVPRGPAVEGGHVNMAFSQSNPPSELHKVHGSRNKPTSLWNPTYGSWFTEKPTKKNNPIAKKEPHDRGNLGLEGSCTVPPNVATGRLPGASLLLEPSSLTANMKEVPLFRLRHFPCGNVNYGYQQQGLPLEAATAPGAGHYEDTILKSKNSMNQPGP
assayExplanation: ALK Kinase Assay (ELISA/TRF, PLC-γ substrate)
Type: biochemical
protocolConditions: ALK kinase inhibition, 1 μM ATP; read-out: ALK Potency
pIC50: −log10 of the molar value.
measuredQuantity: pIC50

Some compounds with recorded pIC50:
COc1cc(CN2CCC(O)CC2)ccc1Nc1ncc2ccc(-c3ccccc3OC)n2n1; > 7.00
COCCOc1ccccc1-c1ccc2cnc(Nc3ccc(C4CCN(CC(N)=O)CC4)cc3OC)nn12; 6.00 to 7.00
COc1cc(CN2C[C@@H](O)[C@H](O)C2)ccc1Nc1ncc2ccc(-c3ccccc3OC)n2n1; > 7.00
CN1CCN(C)C(c2ccc(Nc3ncc4ccc(-c5cccc(S(=O)(=O)NC(C)(C)C)c5)n4n3)cc2)C1=O (stereo not drawn); 5.00 to 6.00
CN1CCN(c2ccc(Nc3ncc4ccc(-c5cccc(N6CCN(C(=O)OC(C)(C)C)CC6)c5)n4n3)cc2)CC1; 5.00 to 6.00

Can you give me pIC50 for all of these, one by one?
1. CN1CCN(c2ccc(Nc3ncc4ccc(-c5cccc(C(=O)OC(C)(C)C)c5)n4n3)cc2)CC1
2. COc1cc([C@@]2(O)CCN(CCF)C[C@@H]2O)ccc1Nc1ncc2ccc(-c3ccccc3N(C)S(C)(=O)=O)n2n1 (racemic)
3. c1cc2c(c(-c3ccc4cnc(Nc5cnn(C6CCNCC6)c5)nn34)c1)OCC2
4. COc1ccc(-c2ccc3cnc(Nc4ccc5c(c4)N(S(C)(=O)=O)CCC5)nn23)cn1
5. COc1cc(C2CCN(C(=O)C3CCN3)CC2)ccc1Nc1ncc2ccc(-c3ccccc3OC)n2n1 (racemic)
6. COc1cc(CN2CCN(C[C@@H](O)CO)CC2)ccc1Nc1ncc2ccc(-c3ccccc3N(C)S(C)(=O)=O)n2n1
7. COc1cc(N2CCC(N3CCOCC3)C2)ccc1Nc1ncc2ccc(-c3ccccc3OC)n2n1 (racemic)
8. COc1cc(C2CCN(C[C@@H](C)O)CC2)ccc1Nc1ncc2ccc(-c3ccccc3OC)n2n1

["6.00 to 7.00", "> 7.00", "6.00 to 7.00", "< 5.00", "> 7.00", "> 7.00", "6.00 to 7.00", "> 7.00"]

Can you give me pIC50 for all of these, one by one?
1. Cn1cc(-c2ccc3cnc(Nc4ccc(N5CCN(CCO)CC5)cc4)nn23)cn1
2. CN1CCOCc2cc(Nc3ncc4ccc(-c5ccc(S(C)(=O)=O)cc5)n4n3)ccc21
3. CN(c1ccccc1-c1ccc2cnc(Nc3ccc4c(c3)CCN(CC(N)=O)C4)nn12)S(C)(=O)=O
4. COc1cc(N2CCN(C[C@H](C)O)CC2)ccc1Nc1ncc2ccc(-c3ccccc3[S+](C)[O-])n2n1 (stereo partly drawn)
5. COc1cc(N2CCC(N3CCOCC3)CC2)ccc1Nc1ncc2ccc(-c3ccccc3C#N)n2n1
6. COc1ccc(-c2ccc3cnc(Nc4ccn(CC(=O)N5CCN(C)CC5)n4)nn23)cn1

6.00 to 7.00
5.00 to 6.00
6.00 to 7.00
6.00 to 7.00
> 7.00
5.00 to 6.00

Can you give me pIC50 for all of these, one by one?
1. COc1cc(C2CCN(CC(N)=O)CC2)ccc1Nc1ncc2ccc(-c3cccnc3N(C)S(C)(=O)=O)n2n1
2. COc1cc2c(cc1Nc1ncc3ccc(-c4ccccc4OC)n3n1)CCN(C[C@@H](C)O)CC2
3. CC(C)(C)NS(=O)(=O)c1cccc(-c2ccc3cnc(Nc4cccc(C(=O)O)c4)nn23)c1
4. COc1c(Nc2ncc3ccc(-c4ccccc4N(C)S(C)(=O)=O)n3n2)cccc1C(=O)N1CCN(CCO)CC1
5. CS(=O)(=O)c1ccc(-c2ccc3cnc(Nc4ccc(-c5cccnc5)cc4)nn23)cc1

["> 7.00", "> 7.00", "5.00 to 6.00", "6.00 to 7.00", "5.00 to 6.00"]

Can you give me pIC50 for all of these, one by one?
1. COc1cc(N2CCC(N3CCN(S(C)(=O)=O)CC3)CC2)ccc1Nc1ncc2ccc(-c3ccccc3OC)n2n1
2. COc1ccc(-c2ccc3cnc(Nc4ccc(C5CCN(CC(N)=O)CC5)c(C)c4)nn23)cn1
3. COc1ccccc1-c1ccc2cnc(Nc3cc4c(cc3F)CCC(=O)N4)nn12
4. COc1cc(C2CCN(CC(N)=O)CC2)ccc1Nc1ncc2ccc(-c3cccc(S(=O)(=O)NC4CC4)c3)n2n1
5. COc1cc(N2CCC(N3CCOCC3)CC2)ccc1Nc1ncc2ccc(-c3ccccc3CS(C)(=O)=O)n2n1

1: > 7.00; 2: > 7.00; 3: 5.00 to 6.00; 4: > 7.00; 5: 6.00 to 7.00

Given item `COc1cc(N2CCCN(C)CC2)ccc1Nc1ncc2ccc(-c3ccccc3N(C)S(C)(=O)=O)n2n1` , the value recorded as its pIC50 is > 7.00

###

targetOfAssay: ALK (Homo sapiens)
Construct: host or cells: baculovirus expression system
assayExplanation: ALK Kinase Assay (ELISA/TRF, PLC-γ substrate)
Assay type: biochemical
protocolConditions: ALK Kinase Inhibition; read-out: ALK Potency
Protocol: Briefly, each 96-well plate was coated with […] of 10 μg/mL substrate (phospholipase C-γ) in Tris-buffered saline (TBS). […] The reaction was initiated by adding enzyme (30 ng/ml ALK) and was allowed to proceed at 37° C. for 15 minutes. Detection of the phosphorylated product was performed by adding 100 μl/well of Eu—N1 labeled PT66 antibody (Perkin Elmer # AD0041). Data analysis was performed using ActivityBase (IDBS, Guilford, UK). […]
measuredQuantity: IC50

COc1ccc(Cl)cc1-c1ccc2cnc(Nc3ccc(N4CCC(N5CCN(C)CC5)CC4)cc3)nn12 [Example 311]; < 100 nM
COc1cc(N2CCN(C[C@H](C)O)CC2)c(F)cc1Nc1ncc2ccc(-c3ccccc3N(C)S(C)(=O)=O)n2n1 [Example 1479]; < 100 nM
CN1CCN(Cc2nc3ccc(Nc4ncc5ccc(-c6cccc(S(=O)(=O)NC(C)(C)C)c6)n5n4)cc3[nH]2)CC1 [Example 1524]; 100 to 1000 nM

Can you give me IC50 for all of these, one by one?
1. Fc1cccc(-c2ccc3cnc(Nc4cccc(N5CCOCC5)c4)nn23)c1 [Example 175]
2. Cn1cc(-c2ccc3cnc(Nc4ccc(N5CCOCC5)cc4)nn23)cn1 [Example 10]
3. CC(=O)Nc1cc(Nc2ncc3ccc(-c4cccc(Cl)c4)n3n2)ccc1C(C)C [Example 303]
4. CC(C)(C)NS(=O)(=O)c1cccc(-c2ccc3cnc(Nc4cccc(-n5cnnc5)c4)nn23)c1 [Example 1391]
5. COc1ccc(-c2ccc3cnc(Nc4ccc(C5(C#N)CCN(CC(N)=O)CC5)cc4)nn23)cn1 [Example 1545]

1. 100 to 1000 nM
2. 1000 to 10000 nM
3. 1000 to 10000 nM
4. 100 to 1000 nM
5. 100 to 1000 nM

Can you give me IC50 for all of these, one by one?
1. COc1ccccc1-c1ccc2cnc(Nc3cc[nH]n3)nn12 [Example 122]
2. COc1ccc(OC)c(-c2ccc3cnc(Nc4ccc(N5CCN(C[C@H](C)O)CC5)cc4OC)nn23)c1 [Example 1477]
3. COc1cc(N2CCCC(N3CC(C)OC(C)C3)C2)ccc1Nc1ncc2ccc(-c3ccccc3OC)n2n1 (stereo not shown) [Example 1445]
4. CC(=O)Nc1cc(Nc2ncc3ccc(-c4cccnc4)n3n2)ccc1C(C)C [Example 304]
5. COc1ccc2c(c1)cc1cnc(Nc3ccc(N4CCOCC4)cc3)nn12 [Example 268]
6. COc1cc(N2CCC(C)(N3CCOCC3)CC2)ccc1Nc1ncc2ccc(-c3ccccc3N(C)S(C)(=O)=O)n2n1 [Example 1468]

["100 to 1000 nM", "< 100 nM", "< 100 nM", "1000 to 10000 nM", "> 10000 nM", "< 100 nM"]

Can you give me IC50 for all of these, one by one?
1. COc1ccccc1-c1ccc2cnc(Nc3cc(F)c(N4CCN(C[C@H](C)O)CC4)cc3F)nn12 [Example 1481]
2. O=C(c1cccc(-c2ccc3cnc(Nc4ccc(N5CCOCC5)cc4)nn23)c1)N1CCCC1 [Example 15]

< 100 nM
100 to 1000 nM

Values from patent US8471005B2
